system: RARb homodimer (NR concentration 270 nM); test: PBM binding z-score (relative to random genomic background probes); higher = stronger binding; sequences stand for … in GC…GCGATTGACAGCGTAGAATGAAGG
Label condition met when PBM binding z-score is at or above 3; anything below gets condition not met.

Check the entry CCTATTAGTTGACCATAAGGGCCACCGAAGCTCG : does PBM binding z-score equal or exceed 3?
condition not met

Check the entry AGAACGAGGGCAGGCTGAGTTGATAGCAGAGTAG : does PBM binding z-score equal or exceed 3?
condition not met

In plain terms: is recorded PBM binding z-score at least 3 for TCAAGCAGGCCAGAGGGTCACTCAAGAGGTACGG ?
condition not met

Kindly determine if PBM binding z-score recorded for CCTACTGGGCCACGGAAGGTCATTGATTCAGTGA is above or exactly 3.
condition met

Would you say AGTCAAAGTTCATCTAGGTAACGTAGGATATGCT shows PBM binding z-score at minimum 3?
condition met

Answer whether PBM binding z-score of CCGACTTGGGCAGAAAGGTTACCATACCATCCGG is greater than or equal to 3.
condition not met

hey, is PBM binding z-score for this one >= 3? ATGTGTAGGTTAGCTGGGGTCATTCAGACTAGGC
condition met

Determine whether this sequence has PBM binding z-score no lower than 3: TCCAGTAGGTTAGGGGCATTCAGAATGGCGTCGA
condition not met
